# measurement_notes: reduction of polyQ htt aggregates in cells – imaging, exon1htt(103Q)mCFP cells, high-content imaging, primary screen (AID 483);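 further: compound exposure lasted 3 days before fixation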
# protocol_conditions: exon1htt(103Q)mCFP cell line, aggregate imaging, at 2 µM; hits give high values
Calls of active or inactive are those of the source.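 How the source made its calls: active means visual image review flags a hit and inhibition of aggregation exceeds 20%; inconclusive means visual hit but inhibition at or below 20%; inactive means no hit on visual image review.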
quantity_measured: inhibition of aggregation

Exercise: Value lookup for inhibition of aggregation; key = O=C(Nc1ccc2c(c1)C(=O)N(C1CCCCC1)C2=O)C1CCCO1 (stereo unspecified)
Key: 9% (inactive)

Exercise: Proceed to `O=C(COc1nnc2ccccn12)N1CCN(S(=O)(=O)c2ccccc2)CC1`
Key: -29.7% (inactive)

Exercise: Follow-up entry: `Cn1c(C(=O)NCc2cccnc2)cc2sccc21`
Key: 1.2% (inactive)

Exercise: Cool, now `COCCn1c(Sc2nc(C)cs2)nc2c1c(=O)[nH]c(=O)n2C`
Key: -38.9% (inactive)

Exercise: Please answer likewise for `CC(=O)C1=C(N2CCCCC2)CCC1=O`
Key: -14.9% (inactive)

Exercise: What about Cc1ccc(-c2[nH]nc3c2C(c2ccc(OC(=O)N4CCOCC4)cc2)C(C#N)=C(N)O3)cc1 (stereo unspecified) ?
Key: 0.2% (inactive)

* * *

Could you please report measured inhibition for the items listed next?
# measurement_notes: TLR3 IRF3 reporter activation blockers – cell-based, poly I:C stimulus, luciferase, 10K MLSCN set, primary screen (AID 602277)
# protocol_conditions: HEK293-TLR3 RL24 IRF3 luciferase reporter, at 10 µM, hits give high values
Hi! Could you send only the number? It should be in %, unit omitted.

Exercise: Quick one: inhibition of `CCS(=O)(=O)N1CCC(C(=O)N2CCOCC2)CC1` ?
Key: 15.7

Exercise: Same lookup for `Cc1nn(-c2ccc(F)cc2)c(C)c1NS(=O)(=O)c1ccc(Cl)cc1` , please.
Key: 18.8

Exercise: Then CC(=O)Nc1ccc(S(=O)(=O)N2CCSC2c2ccccc2)cc1 (stereo unspecified) ?
Key: 22

Exercise: Also need O=C(NCC1CCCO1)c1ccc(N2CCCCC2)nc1 (stereo unspecified) , thanks.
Key: -103

Exercise: And the next one, `COc1cccc(NC(=O)COc2ccccc2C(N)=O)c1` ?
Key: -182

Exercise: And then `COC(=O)c1sccc1NC(=O)c1ccco1` , what is it?
Key: -4.04

* * *

# measurement_notes: reduction of polyQ htt aggregates in cells – imaging, exon1htt(103Q)mCFP cells, high-content imaging, primary screen (AID 483);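 further: compound exposure lasted 3 days before fixation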
# protocol_conditions: exon1htt(103Q)mCFP cell line, aggregate imaging, at 2 µM; hits give high values
quantity_measured: inhibition of aggregation (%)
Field: numeric (%). Do not append units.

Exercise: Field request: inhibition of aggregation | item: NC1=NC(c2ccc(Br)cc2)n2c(nc3ccccc32)N1 (stereo not given)
Key: -6.6

Exercise: Proceed to O=C(NCC(=O)N(c1cccnc1)C(C(=O)NC1CCCCC1)c1cccnc1)c1ccco1 (stereo not given)
Key: 6.3

Exercise: Here is the next compound: O=C1c2ccccc2C(Nc2ccc3nc(-c4cccnc4)[nH]c3c2)N1Cc1ccco1 (stereo not given)
Key: 23.2

Exercise: Consider next the compound O=C(c1sc2ccccc2c1Cl)N(Cc1cccs1)C1CCS(=O)(=O)C1 (stereo not given) in the same way.
Key: 17.9

Exercise: Subsequent entry: COc1ccc(NC(=O)C2CCCCN2S(=O)(=O)c2ccc(F)cc2)cc1 (stereo not given)
Key: 27.3

Exercise: Thanks! And `CC(=O)Nc1ccc(S(=O)(=O)N2CCN(c3cc(C)nc4ccccc34)CC2)cc1` ?
Key: 35.3

Exercise: Proceed to COc1cccc(N2C(=O)N(c3ccccc3Cl)C3CS(=O)(=O)CC32)c1 (stereo not given)
Key: -6

Exercise: Try the compound `CN(Cc1cnn(C)c1)C(=O)c1cc2ccccc2oc1=O`
Key: -9.2

Exercise: Now give it for CCn1ncc(C2=NOC(C(=O)Nc3ccc4c(c3)OCO4)C2)c1C (stereo not given) too.
Key: 0.2

Exercise: One more compound: CC(C)C(C(=O)Nc1ccc2c(c1)OCO2)N1C(=O)c2ccccc2C1=O (stereo not given)
Key: 10.6
